B1: HDV Ribozyme (parent)
chain: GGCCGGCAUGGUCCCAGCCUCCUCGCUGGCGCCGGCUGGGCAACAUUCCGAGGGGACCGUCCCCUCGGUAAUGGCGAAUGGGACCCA

- Variants of: B1
- testDescription: self-cleavage, relative activity (ratio to wild type); higher = more cleavage; co-transcriptional
measure: self-cleavage
Quick one: just the number, no unit, thanks!

Supply measured self-cleavage of GGCCGGCAUGGUCCCAGCAUCCUCGCUGGCGCUGGCUGGGCAACAUUCCGAGGGGACCGUCCCCUCGGUAAUGGCGAAUGGGACCCA in your reply.
0

Supply measured self-cleavage of GGCCGGCAUGGUCCCAGCCUCCUCGCUGGCGCCGGCUGGGCAACAUUCCGAGGGGACCGUCCCCUGGGUUAUGGCGAAUGGGACCCA in your reply.
1.08

Supply measured self-cleavage of GGCCGGCAUGGUCCCAGCCUCCUCGCUGGCGCCGGCUGGUCAACAUUCCCAGGGGACCGUCCCCUCGGUAAUGGCGAAUGGGACCCA in your reply.
0.626

Supply measured self-cleavage of GGCCGGCAUGGUCCCAGCCUCCUUGCUGGCGCCGGCUGGGCAACUUUCCGAGGGGACCGUCCCCUCGGUAAUGGCGAAUGGGACCCA in your reply.
0.489

Supply measured self-cleavage of GGCCGGCAUGGUCCCAGCCUCCUCGCUGGCGCCGUCUGGGCAACAUUCCGAGGGGAGCGUCCCCUCGGUAAUGGCGAAUGGGACCCA in your reply.
0.415

Supply measured self-cleavage of GGCCGGCAUGGUCCCAGCCUCCUCGCUGGCGCCGGCUGGGCAACAUUCCGAGGGGACCGUCGCCUCGGUAAUGGCGAAUGGGACCCG in your reply.
0.716

Supply measured self-cleavage of GGCCGGCAUGGUCCCAGCCUCAUCGCUGGCGCCGGCUGGGCAACAUUCCGAGGGGACCGUACCCUCGGUAAUGGCGAAUGGGACCCA in your reply.
0.415

Supply measured self-cleavage of GGCCGGCAUGGUCCCAGCCUCCUCGCUGCCGCCGGCUAGGCAACAUUCCGAGGGGACCGUCCCCUCGGUAAUGGCGAAUGGGACCCA in your reply.
0

Supply measured self-cleavage of GGCCGGCAUGGUCCCAGCGUCCUCGCUGGCGCCGGCUGGGCAACAUUCCGAGGGGACCGUCCCCGCGGUAAUGGCGAAUGGGACCCA in your reply.
0.111

Supply measured self-cleavage of GGCCGGCUUGGUCCCAGCCUCCUCGCUGGCGCCGGUUGGGCAACAUUCCGAGGGGACCGUCCCCUCGGUAAUGGCGAAUGGGACCCA in your reply.
0.554

Supply measured self-cleavage of GGCCGGCAUGGUCCCAGCCUCCUCGCUGCCGCCGGCUGGGCAACAUUCCGAGGGGACCGUCCCCUCGGUAAUGGCGAAUGAGACCCA in your reply.
0.0639
